# METHOD_NOTES: Oral bioavailability in Sprague-Dawley rat at 10 mg/kg relative to 2 mg/kg, iv dose
# Assay type: ADME, organism-based
# TEST_CONDITIONS: in vivo
QUANTITY_KIND: bioavailability

Cn1cc(Br)c(C(=O)N2CCN(CCc3ccc(F)cc3)CC2)n1 : 9%

Now look at this entry.
Quick check: bioavailability of Cn1cc(Br)c(C(=O)N2CCN(CC(=O)c3ccc(F)cc3)CC2)n1 ?
59%

###

# METHOD_NOTES: Toxicity in mouse assessed as maximum tolerated dose
# Format: organism-based
# TEST_CONDITIONS: in vivo
QUANTITY_KIND: MTD
Please answer using the number first and the unit second.

What value of MTD has been reported for the following compound? Cn1cc(Cl)c(C(=O)N2CCN(CC(=O)c3ccc(F)cc3)CC2)n1
300 mg/kg
